- SYSTEM NAME: SMC2 hinge long K566E;SMC4 hinge long (mSMC4h of mSMC2h4h-l) (mouse;mouse, UniProt Q8CG48;Q8CG47 492-680;581-766, K566E|)
- Sequence (Q8CG48 492-680 K566E, chain 1 of 2): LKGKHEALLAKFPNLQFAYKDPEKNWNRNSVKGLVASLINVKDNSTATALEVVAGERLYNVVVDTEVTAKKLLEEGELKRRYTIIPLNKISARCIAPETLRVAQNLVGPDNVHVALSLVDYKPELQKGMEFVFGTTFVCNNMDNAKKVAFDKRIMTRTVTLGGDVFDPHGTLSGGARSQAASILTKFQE
- Sequence (Q8CG47 581-766, chain 2 of 2): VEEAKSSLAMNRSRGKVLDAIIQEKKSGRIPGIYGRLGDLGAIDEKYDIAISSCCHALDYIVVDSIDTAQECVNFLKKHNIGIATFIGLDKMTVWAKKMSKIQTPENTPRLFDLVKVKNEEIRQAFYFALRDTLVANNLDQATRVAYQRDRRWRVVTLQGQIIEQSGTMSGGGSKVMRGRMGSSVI
- MEASUREMENT PROTOCOL: fluorescence quenching titration
RESULT TYPE: Kd (nM)
State just the number; it will be interpreted in nM.

Inquiry: Write down Kd measured for item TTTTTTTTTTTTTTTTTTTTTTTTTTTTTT (ssDNA) [30-mer ssDNA]
Reply text: 1800

Where these numbers come from: paper PMC2879519
